Catalogue of binders with associated binding signal
- STUDY TARGET: T1, UNK ZnF1-3 (human, UniProt Q9C0B0 31-174)
- T1 sequence: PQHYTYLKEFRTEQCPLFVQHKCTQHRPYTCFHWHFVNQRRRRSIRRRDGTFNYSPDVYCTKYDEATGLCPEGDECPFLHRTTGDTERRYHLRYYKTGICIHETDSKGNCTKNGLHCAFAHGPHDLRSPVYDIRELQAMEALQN
- METHOD NOTES: nsRBNS (natural sequence RNA bind-n-seq); RBNS binding buffer (assumed for nsRBNS): 25 mM Tris pH 7.5, 150 mM KCl, 3 mM MgCl2, 0.01% Triton X-100, 500 ug/ml BSA, 20 U/ml SUPERase-In, 4 C; UNK is unkempt and MSI1 is Musashi-1; names of the RNAs are library labels; protein concentration not given here; high values mean tight binding
Over roughly 24,000 sequences, “enrichment r” has its median near 0.99; the highest 2% begin near 3.7. Shown is part of a subset that was picked to be rich in the highest values.
Give your result in enrichment R as a bare value.

Guide cases for binding signal, answers given:
BINDER	DISPLAY UNIT	binding signal
chr10:121347744:121347745:-_ENSG00000151923_ENST00000436547|hu_mus|FALSE|FALSE (ssRNA) RNA: GGGAGUUCUACAGUCCGACGAUCCGAUCUGACUGAAUAACUGAAGAAUAAGGACUUCUGUCACAUCUCUGGAGAGGUUACCUACGUAUAGAGUCCGGGGCUGUCCGUCGUCUUCCAUCAUGGUGGGUGCGACGGAGUGAUCCCCAACAGAGGAUUGAGCAUCA	enrichment R	0.644
chr5:128448638:128448639:+_ENSG00000066583_ENST00000173527|hu_mus|hu_hu_hu_mus_False|48_58 (ssRNA) RNA: GGGAGUUCUACAGUCCGACGAUCGGCACUCGCCUUAAUUAGGUUCUGAAUUUCCUUGAACUUCGGGUGGUCUUUGUCAGCUACCAGCUGAAGCAGAACAGCCUCACUAGUGGUCACGAUGAUCCCAGUGCGGGCAAGACGCUCCAACAGAGGAUUGAGCAUCA	enrichment R	0.822

# ---- query binder ----
Which binding signal value is on record for chr7:17149110:17149111:-_ENSMUSG00000058230_ENSMUST00000075845|mus_hu|FALSE|FALSE (ssRNA) RNA: GGGAGUUCUACAGUCCGACGAUCAAUAUCCAUGUAUACAGAUUCCUCCAGCCACUGGUAGAAAUCCUCAUUCAUAAUAAAACUACGGGCCUCUUCCCAAGGCUUUCCGGGAGUUAUGAAAGGAGAAGUCUCCAGGUUUUCUUUCAACAGAGGAUUGAGCAUCA ? 0.85
